# reported TC50 (2d); entries follow
Test system: Hep-2 cells
test_method_notes: Toxicity studies (XTT), Hep-2 cells
Format: cell-based
assay_context: Table 2, Examples 75 to 82 and 125 to 184, 2d

[
  {
    "compound": "O=C(NC1N=C(c2ccccc2)c2ccccc2NC1=O)C(O)Cc1ccccc1 (centres unmarked)",
    "TC50 (2d)": "> 50 µM"
  },
  {
    "compound": "COc1cc([N+](=O)[O-])ccc1C(=O)N(C)C1N=C(c2ccccc2)c2ccccc2NC1=O (centres unmarked)",
    "TC50 (2d)": "> 50 µM"
  },
  {
    "compound": "O=C1Nc2ccc(Cl)cc2C(c2ccccc2)=NC1NC(=O)N1CCCCC1 (centres unmarked)",
    "TC50 (2d)": "> 100 µM"
  },
  {
    "compound": "O=C(NC1CCCCC1)NC1N=C(c2ccccc2)c2ccccc2NC1=O (centres unmarked)",
    "TC50 (2d)": "> 100 µM"
  },
  {
    "compound": "CCCCNC(=O)NC1N=C(c2ccccc2)c2ccccc2NC1=O (centres unmarked)",
    "TC50 (2d)": "> 100 µM"
  },
  {
    "compound": "CCNC(=O)NC1N=C(c2ccccc2)c2ccccc2NC1=O (centres unmarked)",
    "TC50 (2d)": "> 100 µM"
  },
  {
    "compound": "COc1ccc(S(N)(=O)=O)cc1C(=O)NC1N=C(c2ccccc2)c2ccccc2NC1=O (centres unmarked)",
    "TC50 (2d)": "> 50 µM"
  },
  {
    "compound": "Cc1cc(C(=O)NC2N=C(c3ccccc3)c3ccccc3NC2=O)oc1C (centres unmarked)",
    "TC50 (2d)": "> 100 µM"
  }
]
